- TEST_TARGET: human BLT1 receptor (Homo sapiens)
- Construct: expressed in transfected cells; host or cells: HEK293
- ASSAY_DETAILS: BLT-1 cAMP Assay
- Assay type: cell-based
- CONDITION_CONTEXT: antagonist mode; HEK293 cells recombinantly expressing human BLT1; forskolin 4 μM and LTB4 2 nM
Define the label as Satisfied when EC50 is strictly less than 20 nM and as Not satisfied in all remaining cases.

These solved cases illustrate the format of a correct answer.
**Q:** Item O=S(=O)(Nc1ccccc1-c1ccc2c(c1)OC[C@H](Cc1ccc(-c3cncs3)cn1)[C@H]2O)C(F)(F)F (single isomer, unassigned) : EC50 beneath 20 nM, strictly?
**A:** Satisfied

**Q:** Item O=S(=O)(Nc1ccc(F)cc1-c1ccc2c(c1)OC[C@H](Cc1ccc(-c3cncs3)cn1)[C@H]2O)C(F)(F)F (racemic) [Example 8] : EC50 beneath 20 nM, strictly?
**A:** Not satisfied

**Q:** Item O=S(=O)(Nc1ccc(F)cc1-c1ccc2c(c1)OC[C@H](Cc1ccc(-c3cncs3)cn1)[C@H]2O)C(F)(F)F (single isomer, unassigned) [Example 13] : EC50 beneath 20 nM, strictly?
**A:** Satisfied

**Q:** Item O=S(=O)(Nc1ccccc1-c1ccc2c(c1)OC[C@@H](Cc1ccc(-c3cscn3)cn1)[C@@H]2O)C(F)(F)F (single isomer, unassigned) [Example 9] : EC50 beneath 20 nM, strictly?
**A:** Not satisfied

**Q:** Item Cn1nccc1-c1ccc(C[C@@H]2COc3cc(-c4ccccc4NS(=O)(=O)C(F)(F)F)ccc3[C@H]2O)nc1 (single isomer, unassigned) : EC50 beneath 20 nM, strictly?
**A:** Not satisfied

**Q:** Item O=S(=O)(Nc1ccccc1-c1ccc2c(c1)OC[C@@H](Cc1ccc(-c3cscn3)cn1)[C@@H]2O)C(F)(F)F (single isomer, unassigned) [Example 12] : EC50 beneath 20 nM, strictly?
**A:** Satisfied

Now consider a different compound.
**Q:** Item O=S(=O)(Nc1ccccc1-c1ccc2c(c1)OC[C@@H](Cc1ccc(-c3nccs3)cn1)[C@@H]2O)C(F)(F)F (single isomer, unassigned) [Example 11] : EC50 beneath 20 nM, strictly?
**A:** Satisfied

====

- TEST_TARGET: human BLT1 receptor (Homo sapiens, UniProt Q15722)
- Construct: expressed in transfected cells; host or cells: HEK293
- Sequence (Q15722 whole entry): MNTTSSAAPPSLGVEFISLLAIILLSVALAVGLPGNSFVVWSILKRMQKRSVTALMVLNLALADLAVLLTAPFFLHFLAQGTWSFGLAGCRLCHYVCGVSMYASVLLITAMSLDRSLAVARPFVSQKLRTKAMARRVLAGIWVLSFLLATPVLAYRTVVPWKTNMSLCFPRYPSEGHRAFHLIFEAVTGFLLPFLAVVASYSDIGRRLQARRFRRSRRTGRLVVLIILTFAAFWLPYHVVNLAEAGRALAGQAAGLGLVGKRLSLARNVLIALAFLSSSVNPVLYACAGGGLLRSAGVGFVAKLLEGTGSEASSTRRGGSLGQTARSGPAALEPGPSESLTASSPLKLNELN
- ASSAY_DETAILS: BLT-1 cAMP Assay
- Format: cell-based
- CONDITION_CONTEXT: antagonist mode; HEK293 cells recombinantly expressing human BLT1; forskolin 4 μM and LTB4 2 nM
- Method: The ability of compounds to antagonize the human BLT1 receptor was determined using a kit to measure changes in intracellular cyclic AMP levels (cAMP dynamic assay kit, Cisbio Cat. No. 62AM4PEC). […] The levels of cAMP were detected using the CisBio kit following the manufacturer's instructions: cAMP-d2 vial was reconstituted with distilled water and then diluted accordingly with conjugate & lysis buffer. […]
Form field: EC50 (one value per entry).
Mention the unit after the number when you answer.

**Q:** Determine its reported EC50: Cn1cc(-c2ccc(C[C@@H]3COc4cc(-c5ccccc5NS(=O)(=O)C(F)(F)F)ccc4[C@H]3O)nc2)cn1 (single isomer, unassigned) [Example 4]
**A:** 140 nM

**Q:** Determine its reported EC50: Cn1cc(-c2ccc(C[C@H]3COc4cc(-c5ccccc5NS(=O)(=O)C(F)(F)F)ccc4[C@@H]3O)nc2)cn1 (single isomer, unassigned) [Example 3]
**A:** 5 nM

**Q:** Determine its reported EC50: O=S(=O)(Nc1ccccc1-c1ccc2c(c1)OC[C@@H](Cc1ccc(-c3nccs3)cn1)[C@@H]2O)C(F)(F)F (single isomer, unassigned) [Example 10]
**A:** 20 nM

**Q:** Determine its reported EC50: O=S(=O)(Nc1ccc(F)cc1-c1ccc2c(c1)OC[C@@H](Cc1ccc(-c3cncs3)cn1)[C@@H]2O)C(F)(F)F (single isomer, unassigned) [Example 14]
**A:** 31 nM

Consider the additional compound presented here.
**Q:** Determine its reported EC50: O=S(=O)(Nc1ccccc1-c1ccc2c(c1)OC[C@@H](Cc1ccc(-c3cncs3)cn1)[C@@H]2O)C(F)(F)F (single isomer, unassigned) [Example 1]
**A:** 82 nM

This collection of values is drawn from patent US10450309B2.
